Experiment: Cytotoxicity against normal cells (safety assay)
Format: cell-based
Settings: African green monkey, Vero cells (non-cancerous cell line)
// boundary case: IC50 at 24 h equal to 200 µM maps to Criterion not met; strictly smaller maps to Criterion met

// below: answered molecules
COc1ccc(NC(=O)CN2C(=O)S/C(=C\c3cc4cc(OC)ccc4[nH]c3=O)C2=O)cc1 : Criterion met
COc1ccc2[nH]c(=O)c(/C=C3\SC(=O)N(CC(=O)Nc4ccccc4)C3=O)cc2c1 : Criterion not met
COc1ccc(NC(=O)CN2C(=O)S/C(=C3\C(=O)Nc4ccccc43)C2=O)cc1 : Criterion met

In the following, a different molecule is considered.
**Query** I wonder whether COc1cccc2c1C(=O)c1c(O)c3c(c(O)c1C2=O)C[C@@](O)(C(=O)CO)C[C@@H]3O[C@H]1C[C@H](N)[C@H](O)[C@H](C)O1 [Doxorubicin, reference compound] has IC50 at 24 h below 200 µM. Can you tell?
**Result** Criterion met
